Kindly supply the reported inhibition at 20 µM values for the records listed here.
Target: perforin produced by an intact NK cell line (KHYG-1) (Homo sapiens, UniProt P14222)
Construct: the perforin is delivered by a functional NK cell; endogenous in cells; host or cells: KHYG-1 NK cells (K562 target cells)
Sequence (P14222 22-555): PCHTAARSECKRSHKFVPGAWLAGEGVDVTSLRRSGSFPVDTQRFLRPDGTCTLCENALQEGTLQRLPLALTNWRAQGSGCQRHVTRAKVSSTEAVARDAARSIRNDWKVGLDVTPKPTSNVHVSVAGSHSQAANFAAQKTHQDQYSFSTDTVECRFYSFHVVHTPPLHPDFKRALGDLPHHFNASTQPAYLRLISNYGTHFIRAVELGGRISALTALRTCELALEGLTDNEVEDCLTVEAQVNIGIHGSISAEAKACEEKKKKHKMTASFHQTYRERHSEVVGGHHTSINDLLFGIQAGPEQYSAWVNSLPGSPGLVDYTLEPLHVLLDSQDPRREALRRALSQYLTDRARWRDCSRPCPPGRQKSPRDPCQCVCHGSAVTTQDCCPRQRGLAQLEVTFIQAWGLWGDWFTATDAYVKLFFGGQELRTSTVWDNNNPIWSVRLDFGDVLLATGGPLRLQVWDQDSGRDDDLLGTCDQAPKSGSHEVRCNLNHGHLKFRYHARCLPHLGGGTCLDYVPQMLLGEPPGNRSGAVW
Test: KHYG-1 cytotoxicity assay: perforin-induced lysis of K562 target cells co-incubated with KHYG-1 NK cells
Format: cell-based
Conditions: 20 μM, no serum, K562 targets, vs untreated control, ± SEM; read-out: KHYG-1 inhibition (% at 20 μM), no serum
Experimental: KHYG-1 cells were washed and resuspended in RPMI + 0.1% BSA at 4 × 10^5 cells/mL, and an amount of 50 μL of KHYG-1 cells was dispensed to each well of a 96-well V-bottom plate. RPMI (50 μL) + 0.1% BSA or 10% (final concentration) of serum was added to each well. […] The percentage of specific cytotoxicity was calculated using the following formula: [drawing 4] and expressed as the mean of triplicate assays ± standard error of the mean.
Please append the unit to your numeric answer.

Q. I have this compound here, O=C1NC(=S)N/C1=C/c1ccc(-c2ccc3c(c2)CNC3=O)s1 [compound 118] , and I need its recorded inhibition at 20 µM.
A. 56%

Q. What would you report for CN1Cc2cc(-c3ccc(/C=C4/NC(=S)NC4=O)s3)ccc2C1=O [compound 119] ?
A. 42%

Q. What do you get for CCOC(=O)N1Cc2cc(-c3ccc(/C=C4/NC(=S)NC4=O)s3)ccc2C1=O [compound 129] ?
A. 46%

Q. Next compound: O=C1NC(=S)N/C1=C/c1ccc(-c2ccc3c(c2)C(=O)NCC3)s1 [compound 168]
A. 51%

Q. Then what about the compound O=C1NC(=S)N/C1=C/c1ccc(-c2ccc3c(c2)CN(CCO)C3=O)s1 [compound 125] ?
A. 43%

Q. Cool, now CC1c2cc(-c3ccc(/C=C4/NC(=S)NC4=O)s3)ccc2C(=O)N1C (stereo not shown) [compound 135]
A. 90%

Q. What about O=C1NC(=S)N/C1=C/c1ccc(-c2ccc3c(c2)CN(CCCO)C3=O)s1 [compound 126] ?
A. 48%

Q. Consider next the compound O=C1NC(=S)N/C1=C/c1ccc(-c2ccc3c(c2)COC3=O)s1 [compound 4] in the same way.
A. 53%

Q. Can you check O=C1NC(=S)N/C1=C/c1ccc(-c2ccc3c(c2)CNC3=O)cn1 [compound 207] next?
A. 43%

Q. Continue with O=C1NC(=O)/C(=C\c2ccc(-c3ccc4c(c3)CNC4=O)s2)N1 [compound 136]
A. 49%
